Listed here: items and their measured growth.
system: UACC-62 melanoma; assay: NCI-60 one-dose screen, 48 h (100 = growth as untreated, 0 = no growth, -100 = all killed); details: 10 µM unless noted
This is part of a sample that, as a whole, favours compounds with a hit. Of some 83,000 tested, about 20% had one in any assay.
Field: numeric (%). Do not append units.

Ask | Identify growth associated with the molecule "O=C([C@@H](COCc1ccccc1)N1C(=O)[C@@H](N2C(=O)OC[C@@H]2c2ccccc2)[C@H]1/C=C/c1ccccc1)N1CCC(CCN2CCCCC2)CC1"
Reply | 95.5

Ask | Specify measured growth for "Oc1ccccc1/C=N/Nc1ccc2ccccc2n1" .
Reply | 40.6

Ask | Name the recorded growth of the molecule listed here: "C=C(C[n+]1ccccc1)[C@@H]1CC[C@]2(C(=O)OC)CC[C@]3(C)[C@H](CC[C@@H]4[C@@]5(C)CC[C@H](O)C(C)(C)[C@@H]5CC[C@]43C)[C@@H]12"
Reply | 91.5

###

system: M14 melanoma; assay: NCI-60 one-dose screen, 48 h (100 = growth as untreated, 0 = no growth, -100 = all killed); conditions: 10 µM unless noted
Compounds without any hit were thinned out: in the full panel of roughly 83,000, 20% have a hit.
METRIC_NAME: growth (%)
Write the answer as a number in %, unit excluded.

Completed entries (count: 6):
[[record]]
molecule = "CC1CN(Cc2ccco2)C(=S)N(c2ccccc2)C1=O (configuration not stated)"
units_text = "%"
observed_result = 99.6

[[record]]
molecule = "COC(=O)[C@H](C(C)C)n1c(=O)c2cc(OC)c(OC)cc2c2cnc3[nH]ccc3c21"
units_text = "%"
observed_result = 76.1

[[record]]
molecule = "Cn1c2ccccc2c2c3c(c4c5ccccc5n(CCCCCC#N)c4c21)C(=O)N(O)C3=O"
units_text = "%"
observed_result = 1.43

[[record]]
molecule = "CCN(CC)CCCC(C)NCCCNc1cccc2cccnc12 (configuration not stated)"
units_text = "%"
observed_result = 104

[[record]]
molecule = "C=C1CCC2C3(C)COC(c4ccc(SC)cc4)OC3CCC2(C)C1C/C=C1/C(=O)OCC1O (configuration not stated)"
units_text = "%"
observed_result = 69.3

[[record]]
molecule = "Cc1cc2cc3cc(C)c(N(C)C)cc3[n+](C)c2cc1N(C)C"
units_text = "%"
observed_result = 41.2


Ask | Complete the entry with growth for "O=C(CO[N+](=O)[O-])Nc1ccc(C(=O)/C=C/c2ccc(Cl)cc2)cc1"
Reply | 3.46

Ask | Quickly give me recorded growth for "COc1ccc(-c2cc(NC(=O)Nc3ccc(O)cc3)no2)cc1"
Reply | 35.1

Ask | Give the measured growth for "COc1c(Cl)cc(Cl)cc1Cl"
Reply | 116

Ask | Indicate its recorded growth; the molecule in question is "O=C1/C(=C\c2cn(C(=O)c3ccc(Cl)cc3)c3ccccc23)c2ccccc2N1c1c(Cl)cccc1Cl"
Reply | 104

Ask | Supply measured growth of "Cc1ccc(Nc2c(C(N)=O)cnc3ccc(-c4csc(N)n4)cc23)cc1" in your reply.
Reply | 98.6

Ask | Item "CCOC(=O)Cc1cnn(C)c1NC(=O)c1ccc(Cl)cc1NC(C)=O" : provide growth
Reply | 101

Ask | Input "COc1ccc(-c2csc(NC(=O)CN3CCN(c4cc5c(cc4F)c(=O)c(C(=O)O)cn5C4CC4)CC3)n2)cc1" , output reported growth.
Reply | 20.3

Ask | // fetch growth given entry "CCN(CC)CCC(=O)c1ccc(OC)c2ccccc12"
Reply | 90.1

Ask | Look up and report measured growth for this entry: "CCN(C(=O)CN1CCN(c2cc3c(cc2F)c(=O)c(C(=O)O)cn3C2CC2)CC1)c1nc(-c2ccc(OC)cc2)cs1"
Reply | 48.7

Ask | Please indicate growth recorded for "COc1ccc(/C=C2\N=C3Sc4cc(Cl)ccc4C(=O)N3C2=O)cc1"
Reply | 99.6

Ask | Give growth for "Fc1ccc(Cc2ccc(F)cc2)cc1"
Reply | 106

Ask | Tell me its growth given O=C(O)C(O)C(O)C(=O)O.[NH-]C1CCCCC1[NH-].[Pt+2] (configuration not stated) as the entry.
Reply | 103

Ask | Return the recorded growth value; entry: CCCCCCCCCCCCCCCCCCNC(=O)[C@H]1CSC(c2ccc(F)c(OC)c2)N1 (some centres not stated)
Reply | -90.8

Ask | Report measured growth; entry is COc1ccc(N(Cc2cc(OC)c(OC)c(OC)c2)C2OC(=O)c3ccccc32)cc1 (configuration not stated)
Reply | 25.7

Ask | Identify measured growth associated with CCOC(=O)C(C#N)C1CCCCC1 (configuration not stated)
Reply | 101

Ask | Fill in growth for record O=C(NC(Cc1ccccc1)C(=O)CCl)OCc1ccccc1 (configuration not stated)
Reply | 80.1

###

system: HS 578T breast; test: NCI-60 one-dose screen, 48 h; settings: 10 µM unless noted
About 83,000 compounds went through this panel and 20% of them were active in at least one assay; those are over-represented in the sample as a whole. Activity calls are given as the source filed them. The calls were made as follows: active = growth percent below 10; inactive = the rest.
Pick one: class 1 for active, class 0 for inactive

Before answering, review these 2 worked examples.
[[record]]
molecule = "CCOC(=O)c1c2ncccc2n2c(=O)n(-c3ccc(Cl)cc3)nnc12"
classification = "class 0"

[[record]]
molecule = "CNC(=O)c1cc(Oc2ccc3nc(NC(=O)Nc4ccc(N5CCC(N(C)C)CC5)cc4)sc3c2)ccn1"
classification = "class 0"


Ask | Hello, I am checking results. What call was entered for "NCCN1CCN(c2nccc(-c3ccc4ccccc4c3)n2)CC1" ?
Reply | class 0

Ask | Hello, I am checking results. What call was entered for "C(=N\Nc1ccccn1)/c1ccccn1" ?
Reply | class 0

Ask | Short answer needed: outcome of this test for "COC(=S)SCN(CSC(=S)OC)c1ccc(Cl)cc1" ?
Reply | class 0

Ask | Lab log entry: "CN1CCOCCOCCOc2ccccc2NC(=O)c2nc(cnc2N)-c2ccc(cc2)S1(=O)=O" — outcome as called in the assay?
Reply | class 0

Ask | # outcome recorded in this test, key = COc1ccc(CN(c2ccc(C)cc2)C2OC(=O)c3ccccc32)cc1OC (stereo not given)
Reply | class 0

Ask | Tell me the assay call for "Cc1nc2nc(N)nc(N)c2nc1C" please.
Reply | class 0

Ask | Hi, do you know how "CN1CCN(Cc2ccc(NC(=O)c3cncc(C#Cc4c(N)ncc5ccc(C#N)cc45)c3)cc2C(F)(F)F)CC1" came out in this test?
Reply | class 0

Ask | Can you look up the reported call for "CCCCCN(CCCCC)CCC[C@@H](C)[C@H]1CC[C@H]2[C@@H]3[C@H](OCCCN)C[C@@H]4C[C@H](OCCCN)CC[C@]4(C)[C@H]3C[C@H](OCCCN)[C@]12C" for me?
Reply | class 0

Ask | Returns: the outcome recorded for "COc1cc(NC(N)=NCC(C)(C)COc2ccc(C(F)(F)F)cc2)cnc1C#N" in this assay.
Reply | class 0

Ask | Short answer needed: outcome of this test for "C#Cc1nc2ccccc2c(=O)[nH]1" ?
Reply | class 1

Ask | Test call for this molecule, please: "CCCCCCCCCC(=O)Oc1ccc(/C(=C(/C)Cc2cccc(OC)c2)c2ccc(OCCN(C)C)cc2)cc1"
Reply | class 0

Ask | Outcome? "COc1ccc(C/C(C)=C(\c2ccc(OCCN3CCCCCC3)cc2)c2ccc(OC(=O)C3CCCCC3)cc2)cc1"
Reply | class 0

Ask | Please let me know the test result on file for "C[C@@]1(N2C(=O)OC[C@@H]2c2ccccc2)C(=O)N([C@H](CC(=O)N2CCC(N3CCCCC3)CC2)C(=O)NCc2cccc(C(F)(F)F)c2)[C@@H]1/C=C/c1ccccc1" .
Reply | class 0

Ask | // outcome(item) with item = "Nc1nc2ccc(-c3nc4ccc5[nH]ncc5c4c4c3CCC4)cc2s1"
Reply | class 1

Ask | Look up the recorded call for "C(=N\Nc1nnn(Cc2ccccc2)n1)/c1ccccc1" in this test.
Reply | class 0

Ask | Dear colleague, could you share the recorded outcome for "C=C1C(=O)O[C@H]2[C@H]1CC/C(Cn1cc(Cn3ccc4ccccc43)nn1)=C\CC[C@@]1(C)O[C@@H]21" when you have a moment?
Reply | class 0

Ask | Query: recorded result category for CC(=O)OCC1OC(OC2=C(CC=C(Cl)Cl)C(=O)c3ccccc3C2=O)C(OC(C)=O)C(OC(C)=O)C1OC(C)=O (stereo not given) in this test
Reply | class 0

Ask | Any idea what this test logged for "CCN(CC)CC#CCOC(=O)[C@]1(C)CCC[C@@]2(C)[C@H]1CC(C=O)=C1C=C(C(C)C)CC[C@@H]12" ?
Reply | class 0

###

tested on: MOLT-4 leukemia; test: NCI-60 one-dose screen, 48 h; conditions: 10 µM unless noted
About 83,000 compounds went through this panel and 20% of them were active in at least one assay; those are over-represented in the sample as a whole. Activity calls are given as the source filed them. How the source made its calls: active means growth percent below 10; inactive means the rest.
A correct response names exactly one class from label 1 for active, label 0 for inactive

[[record]]
compound = "CC(=O)C1=C(O)C=C2Oc3c(C(=O)/C=C/c4c(Cl)cccc4Cl)c(O)c(C)c(O)c3[C@]2(C)C1=O"
tested_system = "MOLT-4 leukemia"
classification = "label 1"

[[record]]
compound = "COc1cccc(-c2cn3c(ccc4ccccc43)n2)c1"
tested_system = "MOLT-4 leukemia"
classification = "label 0"

[[record]]
compound = "CN(CC(=O)N(Cc1ccc(C2CCCCC2)cc1)c1ccc(C(=O)NO)cc1)S(=O)(=O)c1c(F)c(F)c(F)c(F)c1F"
tested_system = "MOLT-4 leukemia"
classification = "label 0"

[[record]]
compound = "Cc1ccc(Nc2c(C(N)=O)cnc3ccc(-c4csc(N)n4)cc23)cc1"
tested_system = "MOLT-4 leukemia"
classification = "label 0"


Proceed to the following item.
Ask | Which outcome was entered for the compound OC(c1cc(-c2ccccc2)nc2ccc(Cl)cc12)C1CCCCN1 (stereo not given) in this test?
Reply | label 0
